// values below are reported Plant response rating, Purslane
Tested on: common purslane
Test: Test F preemergence test
Type: in vivo, Portulaca oleracea
Conditions: Preemergence; 31 g ai/ha; scale 0 to 100
readoutName: Plant response rating, Purslane

molecule	val
Cn1nc(C(F)(F)F)c(C[S+]([O-])c2cccc[n+]2[O-])c1OCC(F)(F)F (racemic)	60
CCn1nc(C(F)(F)F)c(CS(=O)(=O)c2cccc[n+]2[O-])c1OCC(F)(F)F	0
Cn1nc(C(F)(F)F)c(C[S+]([O-])c2ccc(F)c[n+]2[O-])c1OC(F)F (centres unmarked)	0
Cc1cc[n+]([O-])c(S(=O)(=O)C(C)c2c(C(F)(F)F)nn(C)c2OC(F)F)c1 (centres unmarked)	60
Cn1nc(C(F)(F)C(F)(F)F)c(C[S+]([O-])c2cccc[n+]2[O-])c1OCC(F)(F)F (centres unmarked)	40
CC(Oc1c(C[S+]([O-])c2ccc(Cl)c[n+]2[O-])c(C(F)(F)F)nn1C)C(F)(F)F (centres unmarked)	20
Cn1nc(C(F)(F)F)c(CS(=O)(=O)c2cccc[n+]2[O-])c1OC(F)F	20
Cc1cc[n+]([O-])c(S(=O)(=O)C(Cl)c2c(C(F)(F)F)nn(C)c2OCC(F)(F)F)c1 (racemic)	0
Cc1cc[n+]([O-])c(S(=O)(=O)Cc2c(C(F)(F)F)nn(C)c2OC(F)F)c1	40
Cn1nc(C(F)(F)F)c(C[S+]([O-])c2ccc(Cl)c[n+]2[O-])c1OCC(F)(F)F (racemic)	40
Cn1nc(C(F)(F)F)c(CS(=O)(=O)c2cccc[n+]2[O-])c1OCC(F)(F)F	0

====

// values below are reported Horseweed plant response rating
Tested on: Canada horseweed
Assay: Test F preemergence test
Type: in vivo, Conyza canadensis
Details: 62 g ai/ha, Preemergence; scale 0 to 100

molecule	Horseweed plant response rating
CCc1cc[n+]([O-])c(S(=O)(=O)Cc2c(C(F)(F)F)nn(C)c2OCC(F)(F)F)c1 [Compound 60]	100
Cn1nc(OC(F)F)c(CS(=O)(=O)c2cccc[n+]2[O-])c1C(F)(F)F [Compound 80]	100
CCn1nc(C(F)(F)F)c(CS(=O)(=O)c2cc(C)cc[n+]2[O-])c1OCC(F)(F)F [Compound 64]	50
CCn1nc(C(F)(F)F)c(CS(=O)(=O)c2cccc[n+]2[O-])c1OCC(F)(F)F [Compound 63]	98

====

Tested on: velvetleaf
Assay: Test A pre-/postemergence greenhouse test
Type: in vivo, Abutilon theophrasti
Settings: Postemergence, 500 g ai/ha; 0 to 100 scale, 0 is no effect, 100 is complete control
Use 60 as the dividing line for Velvetleaf plant response rating, with the line itself on the 1 side and lower values as -1.

compound	studyTarget	cat
Cn1nc(C(F)(F)C(F)(F)F)c(CS(=O)(=O)c2cccc[n+]2[O-])c1OCC(F)(F)F	velvetleaf	1
Cn1nc(C(F)(F)F)c(CS(=O)(=O)c2ccc(F)c[n+]2[O-])c1OC(F)F	velvetleaf	-1
Cn1nc(C(F)(F)F)c(C[S+]([O-])c2ccc(Br)c[n+]2[O-])c1OC(F)F (racemic)	velvetleaf	1
Cn1nc(C(F)(F)F)c(CS(=O)(=O)c2cc(C3CC3)cc[n+]2[O-])c1OCC(F)(F)F	velvetleaf	-1
CC(C)c1cc[n+]([O-])c([S+]([O-])Cc2c(C(F)(F)F)nn(C)c2OCC(F)(F)F)c1 (centres unmarked)	velvetleaf	1
Cc1cc[n+]([O-])c([S+]([O-])C(C)c2c(C(F)(F)F)nn(C)c2Cl)c1 (mixture of isomers)	velvetleaf	-1
Cn1nc(C(F)(F)C(F)(F)F)c(CS(=O)(=O)c2ccc(Cl)c[n+]2[O-])c1OCC(F)(F)F	velvetleaf	-1
Cn1nc(C(F)(F)F)c(CS(=O)(=O)c2ccc(Cl)c[n+]2[O-])c1OCC(F)F	velvetleaf	-1
Cc1cc[n+]([O-])c([S+]([O-])Cc2c(C(F)(F)F)nn(C)c2OC(F)F)c1 (centres unmarked)	velvetleaf	1
CCc1cc[n+]([O-])c([S+]([O-])Cc2c(C(F)(F)F)nn(C)c2OCC(F)(F)F)c1 (centres unmarked)	velvetleaf	1
Cn1nc(C(F)(F)F)c(C[S+]([O-])c2ccc(Cl)c[n+]2[O-])c1OCC(F)(F)C(F)(F)F (centres unmarked)	velvetleaf	1
CC(c1c(C(F)(F)F)nn(C)c1Cl)S(=O)(=O)c1cccc[n+]1[O-] (centres unmarked)	velvetleaf	-1
Cc1cc[n+]([O-])c([S+]([O-])Cc2c(C(F)(F)C(F)(F)F)nn(C)c2OCC(F)(F)F)c1 (centres unmarked)	velvetleaf	1
CCn1nc(C(F)(F)F)c(C[S+]([O-])c2cc(C)cc[n+]2[O-])c1OCC(F)(F)F (racemic)	velvetleaf	1
Cn1nc(C(F)(F)F)c(CS(=O)(=O)c2cccc[n+]2[O-])c1Cl	velvetleaf	-1
Cc1cc([S+]([O-])Cc2c(C(F)(F)F)nn(C)c2OCC(F)(F)F)[n+]([O-])cc1Cl (centres unmarked)	velvetleaf	1
Cn1nc(OC(F)F)c(C[S+]([O-])c2cccc[n+]2[O-])c1C(F)(F)F (centres unmarked)	velvetleaf	1
Cc1cc[n+]([O-])c([S+]([O-])Cc2c(C(F)(F)F)nn(CC(F)(F)F)c2Cl)c1 (centres unmarked)	velvetleaf	-1
CCOc1ccc(S(=O)(=O)Cc2c(C(F)(F)F)nn(C)c2OC(F)F)[n+]([O-])c1	velvetleaf	-1
CCc1cc[n+]([O-])c([S+]([O-])Cc2c(C(F)(F)F)nn(C)c2OC(F)F)c1 (centres unmarked)	velvetleaf	1
CC(Oc1c(CS(=O)(=O)c2cccc[n+]2[O-])c(C(F)(F)F)nn1C)C(F)(F)F (centres unmarked)	velvetleaf	1
Cn1nc(C(F)(F)F)c(C[S+]([O-])c2ccc(Cl)c[n+]2[O-])c1OCC(F)F (centres unmarked)	velvetleaf	1
Cn1nc(C(F)(F)F)c(C[S+]([O-])c2cccc[n+]2[O-])c1OCC(F)(F)C(F)(F)F (centres unmarked)	velvetleaf	1
